# testTarget: HsRAD51 (Homo sapiens)
# Sequence (Q06609 2-339): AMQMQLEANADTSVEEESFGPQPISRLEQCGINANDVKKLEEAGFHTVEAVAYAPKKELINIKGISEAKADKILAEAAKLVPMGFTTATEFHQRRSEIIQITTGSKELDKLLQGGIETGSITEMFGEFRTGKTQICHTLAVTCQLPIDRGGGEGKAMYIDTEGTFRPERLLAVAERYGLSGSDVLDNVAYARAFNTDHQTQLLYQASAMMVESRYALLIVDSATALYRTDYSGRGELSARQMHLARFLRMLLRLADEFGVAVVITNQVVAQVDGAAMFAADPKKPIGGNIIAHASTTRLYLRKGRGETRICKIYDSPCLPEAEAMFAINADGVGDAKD
# procedureDetails: LC-MS/MS of the covalent adduct at C319
# Assay type: binding
propertyMeasured: IC50

# chemicalString, result
data = [
    ("O=C1C(Cl)=C(N2CCOCC2)C(=O)N1c1ccc(Cl)c(Cl)c1", "5 to 30 µM"),
]
